The origin of these recorded values is ChEMBL document CHEMBL1154015.

Target: Human immunodeficiency virus type 1 integrase (Human immunodeficiency virus 1)
Sequence (Q7ZJM1 whole entry): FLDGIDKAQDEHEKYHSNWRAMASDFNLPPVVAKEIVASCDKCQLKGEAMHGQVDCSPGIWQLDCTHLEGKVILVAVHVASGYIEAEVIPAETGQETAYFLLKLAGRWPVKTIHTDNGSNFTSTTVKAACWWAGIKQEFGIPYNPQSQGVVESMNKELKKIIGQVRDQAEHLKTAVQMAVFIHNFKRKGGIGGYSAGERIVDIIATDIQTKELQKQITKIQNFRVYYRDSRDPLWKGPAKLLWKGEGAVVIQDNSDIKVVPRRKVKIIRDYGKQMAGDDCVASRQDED
Assay: Inhibition of HIV1 integrase 3'-processing activity expressed in Escherichia coli BL21 (DE3) by gel based assay in presence of magnesium

- smiles_repr: "O=C(O)C(=O)CC(=O)c1cn(Cc2ccc(F)cc2)c2ccc(Br)cc2c1=O"
  units_text: "µM"
  IC50: 1.6
- smiles_repr: "CCOC(=O)C(=O)CC(=O)c1cn(Cc2ccc(F)cc2)c2ccc(Br)cc2c1=O"
  units_text: "µM"
  IC50: 78

====

Recorded CC50 at 72 h by entry
Assay: Cytotoxicity against HIV1 NL4-3 infected human TZM-bl cells assessed as reduction in cell viability after 3 days by WST1 assay
Assay type: cell-based
Settings: HIV1 NL4-3 infected TZM-bl cells

- smiles_repr: "CCOC(=O)C(=O)CC(=O)c1cn(Cc2ccc(F)cc2)c2ccc(Br)cc2c1=O"
  CC50 at 72 h: "> 1000 µM"
- smiles_repr: "O=C(O)C(=O)CC(=O)c1cn(Cc2ccc(F)cc2)c2ccc(Br)cc2c1=O"
  CC50 at 72 h: "> 1000 µM"
